# TARGET: JAK1 (Homo sapiens (Human), UniProt P23458)
# Sequence (P23458 whole entry): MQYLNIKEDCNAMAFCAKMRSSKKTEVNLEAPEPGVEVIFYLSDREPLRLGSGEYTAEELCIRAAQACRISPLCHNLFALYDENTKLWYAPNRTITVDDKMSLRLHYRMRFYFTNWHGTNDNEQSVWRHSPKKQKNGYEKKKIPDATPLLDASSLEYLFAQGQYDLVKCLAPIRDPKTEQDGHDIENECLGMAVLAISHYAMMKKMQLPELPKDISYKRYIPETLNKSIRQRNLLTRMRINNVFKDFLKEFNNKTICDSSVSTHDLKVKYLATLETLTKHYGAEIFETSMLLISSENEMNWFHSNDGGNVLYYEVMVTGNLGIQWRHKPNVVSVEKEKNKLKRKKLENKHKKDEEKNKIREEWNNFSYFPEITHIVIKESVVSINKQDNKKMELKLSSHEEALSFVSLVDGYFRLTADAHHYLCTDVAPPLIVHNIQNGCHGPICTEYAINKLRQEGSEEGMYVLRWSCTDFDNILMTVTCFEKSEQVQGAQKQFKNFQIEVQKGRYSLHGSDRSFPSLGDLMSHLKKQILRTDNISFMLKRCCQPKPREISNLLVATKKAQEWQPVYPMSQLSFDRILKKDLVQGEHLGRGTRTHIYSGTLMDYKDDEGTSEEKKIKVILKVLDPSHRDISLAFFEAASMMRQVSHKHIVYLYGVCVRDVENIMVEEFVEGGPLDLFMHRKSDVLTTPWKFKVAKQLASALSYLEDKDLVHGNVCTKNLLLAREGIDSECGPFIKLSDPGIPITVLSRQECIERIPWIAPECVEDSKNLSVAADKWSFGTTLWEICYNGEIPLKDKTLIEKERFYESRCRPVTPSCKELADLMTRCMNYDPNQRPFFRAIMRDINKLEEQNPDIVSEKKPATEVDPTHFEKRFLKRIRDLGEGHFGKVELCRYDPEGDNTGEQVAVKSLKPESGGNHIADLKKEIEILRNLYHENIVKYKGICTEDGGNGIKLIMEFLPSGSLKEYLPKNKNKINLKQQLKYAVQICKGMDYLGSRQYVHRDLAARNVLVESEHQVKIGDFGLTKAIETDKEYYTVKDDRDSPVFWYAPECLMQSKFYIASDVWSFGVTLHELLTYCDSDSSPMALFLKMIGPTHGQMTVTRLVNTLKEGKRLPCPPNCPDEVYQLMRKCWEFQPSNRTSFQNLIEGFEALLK
# EXPERIMENT_SUMMARY: Analysis of JAK1 activity inhibition ability (ADP-Glo Kinase Assay)
# Format: biochemical
# ASSAY_CONTEXT: JAK1 enzyme, ADP-Glo luminescence, ATP 250 uM, IRS-itide substrate, 30° C. 40 minutes; read-out: IC50
QUANTITY_MEASURED: IC50

Sample answers from the record:
CCS(=O)(=O)N1CC=C(c2cc(NC(=O)C3CC3)nc3[nH]ccc23)C(C)(C)C1; > 200 nM
N#CC1CCN(C(=O)Cc2ccc(-c3cc(NC(=O)C4CC4)nc4[nH]ccc34)cc2)C1 (stereo not drawn); 20 to 200 nM

We now examine a further molecule.
Report IC50 for Cc1c(NS(=O)(=O)C2CC2)ccc(-c2cc(NC(=O)C3CC3)[n+]([O-])c3[nH]ccc23)c1C please. 20 to 200 nM
